src = PubChem BioAssay AID1985

System: S. Typhi PhoP-promoter GFP reporter, fluorescence, 4 h
Procedure Text: PhoP regulon inhibitor project modified counter assay, GFP fluorescence readout, dose response (AID 1985)
Entries and their measured IC50 follow.
Measurement Kind: IC50

1) O=C(Cn1nc(C(F)F)cc1C(F)F)NNC(=S)Nc1ccc([N+](=O)[O-])cc1 : 64.2 µM
2) Fc1ccc(Nc2c3c(nc4ccccc24)CCC3)cc1 : 85 µM
3) c1ccc2c(NCCc3c[nH]c4ccccc34)c3ccccc3nc2c1 : 75.7 µM
4) CN1CCN(C(c2ccc(Br)cc2)c2cc(Cl)c3cccnc3c2O)CC1 (stereo unspecified) : 33.6 µM
5) Oc1ccc(C[C@@H]2CNCCN2CCCCC2CCCCC2)cc1 : 74.3 µM
6) O=S(=O)(Nc1ncccn1)c1ccc(NC(=S)Nc2ccc(Cl)cc2)cc1 : 97.1 µM
